# System: Pseudomonas aeruginosa
# Test Summary: ≥ marks a high value that may be exact or a test limit, other limits are often not marked, values filed in µg/mL are converted to µM
I'd appreciate it if you marked entries Yes when MIC is lower than 20 µM and No when it is not.

CC[C@H](C)[C@H](NC(=O)[C@H](CC(C)C)NC(=O)[C@H](CCCCN)NC(=O)[C@@H](NC(=O)[C@@H](NC(=O)[C@H](Cc1cnc[nH]1)NC(=O)[C@@H]1CCCN1C(=O)[C@H](CC(C)C)NC(=O)[C@@H](NC(=O)[C@H](CCCCN)NC(=O)[C@H](C)NC(=O)[C@H](CC(C)C)NC(=O)[C@H](CC(C)C)NC(=O)[C@H](CO)NC(=O)[C@H](C)NC(=O)[C@H](CCSC)NC(=O)CN)C(C)C)C(C)C)C(C)C)C(=O)N[C@@H](CCCCN)C(N)=O [GMASLLAKVLPHVVKLIK]: No

Below 20 µM on MIC? Entry CC[C@H](C)[C@H](NC(=O)CN)C(=O)N[C@@H](CC(C)C)C(=O)N[C@@H](CO)C(=O)N[C@@H](CO)C(=O)N[C@@H](Cc1c[nH]c2ccccc12)C(=O)N[C@@H](CC(C)C)C(=O)N[C@@H](CCCCN)C(=O)N[C@@H](CCCCN)C(=O)N[C@@H](CC(C)C)C(=O)N[C@@H](CCCCN)C(=O)N[C@@H](CCCCN)C(=O)N[C@H](C(=O)N[C@H](C(=O)N[C@@H](C)C(=O)N[C@@H](CCCCN)C(N)=O)[C@@H](C)CC)[C@@H](C)CC [GILSSWLKKLKKIIAK]
Yes

Below 20 µM on MIC? Entry CC[C@H](C)[C@@H]1NC(=O)CNC(=O)[C@H](CCCN=C(N)N)NC(=O)[C@H](Cc2ccc(O)cc2)NC(=O)[C@@H]2CSSC[C@H](NC1=O)C(=O)N[C@@H](Cc1ccc(O)cc1)C(=O)N[C@@H](CCCN=C(N)N)C(=O)N[C@@H](CCCN=C(N)N)C(=O)N[C@H](C(=O)N[C@@H](CCCN=C(N)N)C(=O)O)CSSC[C@H](NC(=O)[C@H](Cc1c[nH]c3ccccc13)NC(=O)[C@@H](N)CCCCN)C(=O)NCC(=O)N[C@@H](CCCN=C(N)N)C(=O)N[C@@H](C(C)C)C(=O)N2 [KWCGRVCYRGICYRRCR]
Yes

Below 20 µM on MIC? Entry CSCC[C@H](NC(=O)CNC(=O)[C@H](Cc1ccccc1)NC(=O)[C@H](C)N)C(=O)N[C@@H](C)C(=O)N[C@@H](CC(C)C)C(=O)N[C@@H](CCCCN)C(=O)N[C@@H](CC(C)C)C(=O)N[C@@H](CC(C)C)C(=O)N[C@@H](CCCCN)C(=O)N[C@@H](CCCCN)C(=O)N[C@H](C(=O)N[C@@H](CC(C)C)C(N)=O)C(C)C [AFGMALKLLKKVL]
No

====

# Tested on: Staphylococcus aureus
Readout Type: MIC

Returns the measured MIC for the input compound. Input: "CC(C)C[C@H](NC(=O)[C@@H](N)Cc1ccccc1)C(=O)NCC(=O)N[C@@H](CCCCN)C(=O)N[C@H](C(=O)N[C@H](C(=O)N[C@@H](CCCCN)C(=O)NCC(=O)N[C@@H](C)C(=O)N[C@@H](CO)C(=O)N[C@@H](CCCCN)C(=O)N[C@H](C(=O)N[C@@H](Cc1ccccc1)C(=O)N1CCC[C@H]1C(=O)N[C@@H](C)C(=O)N[C@H](C(=O)N[C@@H](Cc1ccccc1)C(=O)NCC(=O)N[C@@H](CCCCN)C(=O)N[C@H](C(=O)O)C(C)C)C(C)C)C(C)C)C(C)C)C(C)C"
> 123 µM

====

The following compounds have recorded MIC on Staphylococcus epidermidis KCTC 1917.

Look over these answered cases.
CC[C@H](C)[C@H](NC(=O)[C@H](CCCCN)NC(=O)[C@H](Cc1c[nH]c2ccccc12)NC(=O)[C@@H](N)CCCN=C(N)N)C(=O)N[C@@H](Cc1ccccc1)C(=O)N[C@@H](CCCCN)C(=O)N[C@@H](CCCCN)C(=O)N[C@H](C(=O)N[C@H](C(=O)N[C@@H](CCCCN)C(=O)N[C@@H](CCCCN)C(=O)N[C@@H](Cc1c[nH]c2ccccc12)C(N)=O)C(C)C)C(C)C: 8 µM
CC[C@H](C)[C@@H]1NC(=O)[C@H](CCCN=C(N)N)NC(=O)[C@@H](NC(=O)[C@H](CC(C)C)NC(=O)[C@@H](N)CCCN=C(N)N)CSSC[C@@H](C(=O)N[C@@H](CCCN=C(N)N)C(N)=O)NC(=O)[C@H](C(C)C)NC(=O)[C@H](CCCN=C(N)N)NC(=O)[C@H]([C@@H](C)CC)NC(=O)[C@H](C(C)C)NC(=O)[C@H](C(C)C)NC1=O: 4.21 µM

# batch: return MIC for each of the 4 compounds below
1. CC[C@H](C)[C@H](N)C(=O)N[C@@H](CC(C)C)C(=O)N1CCC[C@H]1C(=O)N[C@@H](Cc1c[nH]c2ccccc12)C(=O)N[C@@H](CCCCN)C(=O)N[C@@H](Cc1c[nH]c2ccccc12)C(=O)N1CCC[C@H]1C(=O)N[C@@H](CCCCN)C(=O)N[C@@H](Cc1c[nH]c2ccccc12)C(=O)N1CCC[C@H]1C(=O)N[C@@H](Cc1c[nH]c2ccccc12)C(=O)N[C@@H](CCCN=C(N)N)C(=O)N[C@@H](CCCN=C(N)N)C(N)=O
2. CC[C@H](C)[C@H](NC(=O)[C@H](CC(C)C)NC(=O)[C@H](CS)NC(=O)[C@H](Cc1cnc[nH]1)NC(=O)[C@H](C)NC(=O)[C@H](C)N)C(=O)NCC(=O)N[C@@H](CCCN=C(N)N)C(=O)N[C@@H](CCCCN)C(N)=O [AAHCLIGRK]
3. CC[C@H](C)[C@H](N)C(=O)N[C@@H](CC(C)C)C(=O)N1CCC[C@H]1C(=O)N[C@@H](Cc1c[nH]c2ccccc12)C(=O)N[C@@H](CCCCN)C(=O)N[C@@H](CCCCN)C(=O)N1CCC[C@H]1C(=O)N[C@@H](CCCCN)C(=O)N[C@@H](CCCCN)C(=O)N1CCC[C@H]1C(=O)N[C@@H](CCCCN)C(=O)N[C@@H](CCCN=C(N)N)C(=O)N[C@@H](CCCN=C(N)N)C(N)=O
4. CC(C)C[C@H](NC(=O)[C@H](Cc1c[nH]c2ccccc12)NC(=O)[C@H](CC(C)C)NC(=O)[C@@H](N)CCCN=C(N)N)C(=O)N[C@@H](C)C(=O)N[C@@H](Cc1c[nH]c2ccccc12)C(=O)N[C@@H](CCCCN)C(=O)N[C@@H](CCCN=C(N)N)C(=O)N[C@@H](CCCN=C(N)N)C(N)=O

1: 2.7 µM; 2: 7.5 µM; 3: 2.98 µM; 4: 1 µM

Returns the measured MIC for the input compound. Input: "CC[C@H](C)[C@H](N)C(=O)N[C@@H](CC(C)C)C(=O)NCC(=O)N[C@@H](CCCCN)C(=O)N[C@H](C(=O)N[C@@H](C)C(=O)N[C@@H](CCC(=O)O)C(=O)NCC(=O)N[C@H](C(=O)N[C@@H](CCCCN)C(=O)N[C@@H](CO)C(=O)N[C@@H](CC(C)C)C(=O)N[C@@H](Cc1ccccc1)C(N)=O)[C@@H](C)CC)[C@@H](C)CC"
≥ 64 µM

====

Give measured MIC for each item. Keep answers brief.
# Test system: Escherichia coli DH5alpha

Look over these answered cases.
CC[C@H](C)[C@H](NC(=O)[C@H](CC(C)C)NC(=O)[C@H](CCCCN)NC(=O)[C@H](CCCN=C(N)N)NC(=O)[C@@H](N)CCCCN)C(=O)N[C@@H](CCCCN)C(=O)N[C@@H](CCCN=C(N)N)C(=O)N[C@@H](CCCCN)C(=O)O: ≥ 64 µM
CC(C)C[C@H](NC(=O)CNC(=O)[C@H](CS)NC(=O)CNC(=O)[C@H](CC(N)=O)NC(=O)CNC(=O)[C@H](Cc1c[nH]c2ccccc12)NC(=O)CNC(=O)[C@H](CCCN=C(N)N)NC(=O)[C@H](C)NC(=O)[C@@H](N)C(C)C)C(=O)N[C@@H](Cc1ccccc1)C(=O)NCC(=O)N[C@@H](CCCCN)C(=O)NCC(=O)NCC(=O)O: ≥ 100 µM
CC[C@H](C)[C@H](NC(=O)[C@H](CC(C)C)NC(=O)[C@@H](NC(=O)[C@@H](N)CC(C)C)[C@@H](C)CC)C(=O)N[C@@H](CCCCN)C(=O)N[C@@H](CCCN=C(N)N)C(=O)N[C@@H](CCCCN)C(=O)O: ≥ 64 µM
CC(=O)N[C@@H](CCCCN)C(=O)N[C@@H](Cc1ccccc1)C(=O)N[C@@H](CC(C)C)C(=O)N[C@@H](Cc1cnc[nH]1)C(=O)N[C@@H](CO)C(=O)N[C@@H](C)C(=O)N[C@@H](CCCCN)C(=O)N[C@@H](CCCCN)C(=O)N[C@@H](Cc1ccccc1)C(=O)NCC(=O)N[C@@H](CCCCN)C(=O)N[C@@H](C)C(=O)N[C@@H](Cc1ccccc1)C(=O)N[C@H](C(N)=O)C(C)C: ≥ 200 µM
C[C@@H](O)[C@H](NC(=O)[C@H](CCCN=C(N)N)NC(=O)[C@H](CCCN=C(N)N)NC(=O)[C@H](CC(N)=O)NC(=O)[C@H](Cc1c[nH]c2ccccc12)NC(=O)[C@H](CCCN=C(N)N)NC(=O)[C@H](Cc1c[nH]c2ccccc12)NC(=O)[C@@H](N)CCCN=C(N)N)C(=O)NCC(=O)N[C@@H](CCCN=C(N)N)C(=O)N[C@@H](Cc1c[nH]c2ccccc12)C(=O)N[C@@H](CCCN=C(N)N)C(=O)N[C@@H](Cc1c[nH]c2ccccc12)C(=O)N[C@@H](Cc1ccc(O)cc1)C(=O)O: 12.5 µM
NCCCC[C@H](NC(=O)[C@H](CCCN=C(N)N)NC(=O)[C@H](CCCCN)NC(=O)CNC(=O)[C@H](CO)NC(=O)CNC(=O)[C@H](CCCCN)NC(=O)[C@H](CCCN=C(N)N)NC(=O)[C@@H](N)CCCCN)C(=O)O: ≥ 64 µM

# batch: return MIC for each of the 3 molecules below
1. CC[C@H](C)[C@H](NC(=O)[C@H](CCCN=C(N)N)NC(=O)[C@H](CCC(N)=O)NC(=O)[C@@H](NC(=O)[C@@H](NC(=O)[C@H](CCCN=C(N)N)NC(=O)[C@H](CCCCN)NC(=O)[C@H](Cc1ccccc1)NC(C)=O)[C@@H](C)CC)C(C)C)C(=O)N[C@@H](CCCCN)C(=O)N[C@@H](CC(=O)O)C(=O)N[C@@H](CC(C)C)C(=O)N[C@@H](CC(C)C)C(=O)N[C@@H](CCCN=C(N)N)C(N)=O
2. CC[C@H](C)[C@H](NC(=O)[C@H](CC(C)C)NC(=O)[C@@H](NC(=O)[C@H](CC(C)C)NC(=O)[C@@H](NC(=O)[C@H](CCCCN)NC(=O)[C@H](CCCN=C(N)N)NC(=O)[C@H](CCCCN)NC(=O)[C@H](CCCN=C(N)N)NC(=O)[C@@H](N)CCCCN)[C@@H](C)CC)[C@@H](C)CC)C(=O)N[C@@H](CCCCN)C(=O)N[C@@H](CCCN=C(N)N)C(=O)N[C@@H](CCCCN)C(=O)O
3. CC(C)C[C@H](NC(=O)[C@H](Cc1ccccc1)NC(=O)[C@H](CCCCN)NC(=O)[C@H](C)NC(=O)[C@H](C)NC(=O)[C@H](CC(C)C)NC(=O)[C@H](CCCCN)NC(=O)[C@H](CCCCN)NC(=O)[C@H](CC(C)C)NC(=O)[C@H](CC(C)C)NC(=O)[C@H](CCCCN)NC(=O)[C@H](CC(C)C)NC(=O)[C@@H](N)Cc1ccccc1)C(=O)O

1: ≥ 119 µM; 2: 8 µM; 3: 2.04 µM

Where do the numbers come from? From DBAASP.
